- system tested: UniProtKB P27815
- Sequence (P27815 whole entry): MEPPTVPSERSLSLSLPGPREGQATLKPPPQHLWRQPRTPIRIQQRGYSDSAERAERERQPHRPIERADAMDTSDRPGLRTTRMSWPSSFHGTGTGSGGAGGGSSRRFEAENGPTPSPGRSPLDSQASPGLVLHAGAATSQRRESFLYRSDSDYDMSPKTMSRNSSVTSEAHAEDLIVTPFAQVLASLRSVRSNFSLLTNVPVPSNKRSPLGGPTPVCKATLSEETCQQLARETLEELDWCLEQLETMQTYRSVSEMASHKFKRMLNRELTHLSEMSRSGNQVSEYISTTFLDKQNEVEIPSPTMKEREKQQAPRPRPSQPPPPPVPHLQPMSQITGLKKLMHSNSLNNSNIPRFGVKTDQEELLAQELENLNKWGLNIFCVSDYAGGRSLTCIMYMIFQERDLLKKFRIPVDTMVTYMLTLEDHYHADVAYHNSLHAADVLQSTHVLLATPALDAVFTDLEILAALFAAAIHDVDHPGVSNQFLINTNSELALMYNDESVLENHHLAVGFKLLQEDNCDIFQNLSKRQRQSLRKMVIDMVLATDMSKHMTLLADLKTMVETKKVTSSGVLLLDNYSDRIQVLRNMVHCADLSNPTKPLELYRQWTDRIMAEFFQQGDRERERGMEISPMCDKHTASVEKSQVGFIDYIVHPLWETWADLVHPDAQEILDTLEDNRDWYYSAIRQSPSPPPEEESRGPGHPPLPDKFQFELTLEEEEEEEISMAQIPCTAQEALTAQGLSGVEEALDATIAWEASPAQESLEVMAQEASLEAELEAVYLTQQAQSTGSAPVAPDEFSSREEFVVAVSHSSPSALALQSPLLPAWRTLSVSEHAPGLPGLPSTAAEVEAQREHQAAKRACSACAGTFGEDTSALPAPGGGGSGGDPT
- experiment description: Inhibition of recombinant full lenght human PDE4A using fluorescent labeled cAMP as substrate after 15 mins by IMAP assay
With a cut-off of 1000 nM, any Ki strictly below it is called Yes; any Ki meeting it or above is called No.

Solved cases below.
Would you kindly verify if Ki of CN1C(=O)c2c(nn(Cc3ccc(-c4cccc(F)n4)cc3)c2N(C)c2ccccc2)N2C1=N[C@@H]1CCC[C@@H]12 is strictly less than 1000 nM?
Yes

Field entry: CN1C(=O)c2c(nn(Cc3ccc(C4CCCN4)cc3)c2Nc2ccccc2)N2C1=N[C@@H]1CCC[C@@H]12 (some centres not stated)
No

Field entry: CN1C(=O)c2c(nn(Cc3ccc(S(N)(=O)=O)cc3)c2Nc2ccccc2)N2C1=N[C@@H]1CCC[C@@H]12
No

Field entry: CN1C(=O)c2c(nn(Cc3ccc(-c4ccccc4)cc3)c2Nc2ccccc2)N2C1=N[C@@H]1CCC[C@@H]12
No

---
Would you kindly verify if Ki of CN1C(=O)c2c(nn(Cc3ccc(-c4cccc(F)n4)cc3)c2Cc2ccc(F)cc2)N2C1=N[C@@H]1CCC[C@@H]12 is strictly less than 1000 nM?
Yes

Field entry: CN1C(=O)c2c(nn(Cc3ccc(-c4cccc(F)n4)cc3)c2N(C)C)N2C1=N[C@@H]1CCC[C@@H]12
No

Field entry: CN1C(=O)c2c(nn(Cc3ccc(C(F)(F)F)nc3)c2Nc2ccccc2)N2C1=N[C@@H]1CCC[C@@H]12
No

###

- experiment description: Inhibition of bovine brain PDE1 using fluorescent labeled cGMP as substrate after 15 mins by IMAP assay
- Parameters: species or system Bos taurus
Task for the reader: assign each of the following compounds its reported pKi.
Numbers only, as −log10 of the molar value.

// worked examples, pKi included
# pKi lookup, item CCCNc1c2c(nn1Cc1ccc(-c3cccc(F)n3)cc1)N1C(=N[C@@H]3CCC[C@@H]31)N(C)C2=O
7.82

Field entry: CC(C)Nc1c2c(nn1Cc1ccc(-c3cccc(F)n3)cc1)N1C(=N[C@@H]3CCC[C@@H]31)N(C)C2=O
7.92

Next compound, please.
# pKi lookup, item CN1C(=O)c2c(nn(Cc3ccc(-c4cccc(F)n4)cc3)c2Oc2ccc(F)cc2)N2C1=N[C@@H]1CCC[C@@H]12
8.18
